Target: T1, CD133 (prominin-1) (Homo sapiens, UniProt O43490 O43490:20-865)
T1 sequence: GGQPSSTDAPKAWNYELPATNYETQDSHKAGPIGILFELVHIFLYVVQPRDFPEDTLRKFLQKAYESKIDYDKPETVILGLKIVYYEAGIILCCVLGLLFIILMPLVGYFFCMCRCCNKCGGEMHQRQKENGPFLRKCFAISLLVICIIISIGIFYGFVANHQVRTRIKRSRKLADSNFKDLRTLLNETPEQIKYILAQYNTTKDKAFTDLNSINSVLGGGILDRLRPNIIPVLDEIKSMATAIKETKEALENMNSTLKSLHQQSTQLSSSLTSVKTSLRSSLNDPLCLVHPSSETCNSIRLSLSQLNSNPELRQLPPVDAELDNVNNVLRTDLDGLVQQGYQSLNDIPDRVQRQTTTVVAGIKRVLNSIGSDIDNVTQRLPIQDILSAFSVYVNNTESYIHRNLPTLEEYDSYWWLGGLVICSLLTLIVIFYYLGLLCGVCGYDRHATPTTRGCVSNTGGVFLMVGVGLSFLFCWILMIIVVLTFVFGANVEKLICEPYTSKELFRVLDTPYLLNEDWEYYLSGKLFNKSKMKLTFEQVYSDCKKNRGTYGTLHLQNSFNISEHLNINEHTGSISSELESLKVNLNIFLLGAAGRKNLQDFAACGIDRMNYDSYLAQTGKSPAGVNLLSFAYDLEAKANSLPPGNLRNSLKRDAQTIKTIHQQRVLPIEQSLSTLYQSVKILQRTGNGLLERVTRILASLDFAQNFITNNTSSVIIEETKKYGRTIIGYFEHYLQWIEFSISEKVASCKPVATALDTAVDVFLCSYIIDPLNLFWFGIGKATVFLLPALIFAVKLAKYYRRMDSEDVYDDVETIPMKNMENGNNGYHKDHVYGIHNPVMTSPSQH
Test: flow; HT-29 cells; 37 C 30 min, DPBS + MgCl2, tRNA, salmon sperm DNA
Conditions: tags: endogenous CD133 on CD133-positive HT-29 or Hep3B cells (ATCC); label: 5'-DY647
pKd: −log10 of the molar value.

{"binder": "CCCUCCUACAUAGGG (ssRNA, 2'-F pyrimidines; 3'-inverted dT) [CD133-1-2-2]", "pKd": 7.09}
